tested on: K4 kissing-loop RNA reporter; test: apparent KD of K4 kissing-loop reporter; higher = weaker reporter binding; conditions: Eterna round: R107; input ligand: none;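 note: bound reporter read as fluorescence of individual clusters on recovered sequencing chips by microscopy, with normalized cluster intensities fitted with a binding model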
Recorded measurements of apparent KD of K4 kissing-loop reporter, one per entry
Could you give me the number in nM? Just the number is fine.

Record excerpt, results attached:
INSERT INTO assay_data (input_sequence, measurement_label, unit_info, readout_value) VALUES
  ('AAACGUUGGUGCGAUACCAGCUGAUCGGAAACGAUCUUGCUGGAGUGAUGUUCCAGGAAAAGCCCUUGGCAGCGCACCGACGAAA [MAT - Same State Theophlline B - Mod of Eli - D26]', 'apparent KD of K4 kissing-loop reporter', 'nM', 1060),
  ('UGGAGUUGACGAAAAGUCAACUCCAGAGAAGGAGCGGACGAAAGUCCAGGUAGGUCGCUCACUACCAGUGAUGUUGGUACUUAAA', 'apparent KD of K4 kissing-loop reporter', 'nM', 170),
  ('UGAUACCAGACGGCCGCCACUAGACCAGUCAAAGACUGGAUGUGAUGUUUGAGGAGUGAUGUUCCUAGGACCGGGUCUGGUAUCU [TrypBX 4 #Palindromic #SwitchBubble #StaticStem]', 'apparent KD of K4 kissing-loop reporter', 'nM', 82.4);

Incoming: Can you look up the measured apparent KD of K4 kissing-loop reporter of AAGUGUGUGGCGGCCGCCACUAGAAUCCAGUGAUGUUGGAGUAAUCAAAUAAAUGAUAAUCAACAUAGGACCGGGCCAUAUAGAA [Same State - Tryptophan B (Freestyle 3)] for me?
Outgoing: 349

Incoming: Find the recorded apparent KD of K4 kissing-loop reporter belonging to AAGUGUGUGGCGGCCGCCACUAGUAUCCAGUGAUGUUGGAGAUAUCACGUAAGUGAUAUCCAACAUAGGACCGGGCCAUAUAGAA [Same State - Tryptophan B (Freestyle 17)] and report it.
Outgoing: 101

###

// values below are reported apparent KD of MS2 coat protein
system: MS2 coat protein; assay: apparent KD of MS2 coat protein, switch ON state; designed switch direction (-1 OFF switch, 1 ON switch): 1; higher = weaker reporter binding; conditions: FMN input: 0 or 200 uM; Eterna round: R93 (includes R88 designs)
Please give a number only; it is taken to be in nM.

INSERT INTO results (input_sequence, unit_info, readout_value) VALUES
  ('AGGAAACAUGAGGAUCACCCAUGUAAAAAUAUGGGAGGAUAUACAAACAGGAAAGUGAGAGUAGAAGGCCUAAAAG [Garnet 19]', 'nM', 42.4);

Incoming: Consider the sequence AAUAUACAUGAGGAUCACCCAUGUUAGGUGGGACUAGGAUAUCAAAAGAAAGAGUAAGAAUGAGAAGGAGUAGAAA [JR_SS001_Sub016] and give its measured apparent KD of MS2 coat protein.
Outgoing: 145

Incoming: Tell me the measured apparent KD of MS2 coat protein of AUAAAACAUGAGGAUCACCCAUGUCCGACAAAUCAAGGAUAUGAUAGCCAAACCAGGCCGUUAGAAGGUGAAAGAA [Edgeza] , please.
Outgoing: 276

###

tested on: MS2 coat protein; assay: apparent KD of MS2 coat protein, switch ON state; designed switch direction (-1 OFF switch, 1 ON switch): -1; higher = weaker reporter binding; conditions: FMN input: 0 or 200 uM; Eterna round: R93 (includes R88 designs)
Some sequences, each annotated with its measured apparent KD of MS2 coat protein.
Field: numeric (nM). Do not append units.

INSERT INTO results (input_sequence, measured_on, readout_value) VALUES
  ('AAAAAACAUGAGGAUCACCCAUGUCAGGAUAUCCGGUUCUUGAAAAAAAAGAGGCGUUGGAGAAGGGACAUUCC [Chica Displaced 13 - Jieux - Exclusion 1]', 'MS2 coat protein', 25);

Incoming: What does the data say about its apparent KD of MS2 coat protein? Entry: AACAGUACAGGAUAUACAUGAGGAUCACCCAUGUGAGAAUUAAGUGGCGUACCACAAAGUAGAAGGGUACUGGA [Maslow Revisited]
Outgoing: 35

Incoming: Requested field: apparent KD of MS2 coat protein. Item: AAAAAACAUGAGGAUCACCCAUGUGAGGAUAUGUAUAUCCCUAAAAAAGUGUGGGACUACAGAAGGCACUUGGA [Atanri]
Outgoing: 43.3

Incoming: State the recorded apparent KD of MS2 coat protein for this entry: AAGAAGUAAGGAUAUGCUGCUCGUCACAAAAGUGAUGAGUAGCAGAAGGUACAUGAGGAUCACCCAUGUUAAGA [JL eternac mod 4]
Outgoing: 24.4

Incoming: Entry GAAAAGUGAGGAUAUACAUGAGGAUCACCCAUGUGUAUAAAAAAUUACACAAAAGAAAGUAGAAGGCACUAAAA [Mat - Exclusion 3 - Mayanna mod - D114] has what apparent KD of MS2 coat protein?
Outgoing: 17.8

Incoming: Give its apparent KD of MS2 coat protein value. Item: AAAAAACAUGAGGAUCACCCAUGUAAGGAUAUGCUGAAAAAAACCUGGAAAACAGGCAGCAGAAGGUACAAAAA [66%, Wbt, 36]
Outgoing: 23.9

Incoming: Look up apparent KD of MS2 coat protein for this sequence: AGAAAGGCAGGAUAUACAUGAGGAUCACCCAUGUUAAGAAAGUGCGAAAGCACAAGAAGUAGAAGGGCCAAGAA [Rupert goes to college]
Outgoing: 23.2

Incoming: Which apparent KD of MS2 coat protein is listed for UAGGUACGAGGAUAUACAUAGAUACAGACACAUGUAGAUGUACAUGAGGAUCACCCAUGUAGAAGGCGUAUAUA [Mat - Same state - Mayanna Mod - D110] ?
Outgoing: 52.6

Incoming: So what does the record say about apparent KD of MS2 coat protein for AGCAAGAGAGGAUAUACAUAAAAAAAAAAAGUCUGAUCCCUACAUGAGGAUCACCCAUGUAGAAGGCUCUGGCA [Ex2 Design 156: Sub-opt 20] ?
Outgoing: 28.8

Incoming: For the sequence shown here, AACUGACAUGAGGAUCACCCAUGUCAGGAUAUGACAUCGAAAAAUAAAUAAAUCGUUGUCAGAAGGGACAUGGA [Design 74: Sub-opt RB] , give the reported apparent KD of MS2 coat protein.
Outgoing: 25.1

Incoming: Bench note: what apparent KD of MS2 coat protein did GAAAACCUAGGAUAUACAUGAGGAUCACCCAUGUCAGUAGACUGGGAAAGGUCUCUCAGUAGAAGGAGGACCCG [Zaered] show?
Outgoing: 509

Incoming: Using the record for AACUGUACAGGAUAUACAUGAGGAUCACCCAUGUGAGAAUUAAGUGGAGAACCACAAAGUAGAAGGGUACAGGA [Mat - Exclusion 3 - JL mod - D17] , report its apparent KD of MS2 coat protein.
Outgoing: 45.7

Incoming: Please give the measured apparent KD of MS2 coat protein for this sequence: AGCUAGUCAGGAUAUACAAAAUGAUUGCAAAAGCAAUCAACACAUGAGGAUCACCCAUGUAGAAGGGACUAGCA [Mat - Exclusion 2 - JL-Eli mod - D44]
Outgoing: 19

Incoming: Would you mind telling me what apparent KD of MS2 coat protein value was observed for ACAAGACAUGAGGAUCACCCAUGUGAGGAUAUGCUCGGAUGACAUGACGUUAGCUAACGCAGAAGGCACAAUAA [Exclusion 1] ?
Outgoing: 28.7

###

The following sequences are shown together with reported apparent KD of MS2 coat protein values.
tested on: MS2 coat protein; assay: apparent KD of MS2 coat protein; designed switch direction (-1 OFF switch, 1 ON switch): 1; higher = weaker reporter binding; details: input ligand: none
Give the number; nM is assumed, so skip it.

Solved entries:
INSERT INTO results (input_sequence, readout_value) VALUES
  ('UCUCGGGUCGUAGGAUAUGUAGGAUAUGUACAUGAGGAUCACCCAUGUCUACCAGAGACAGAAGGACAGAAGGACGAGCCGAGC [pwkr ssNG2 2FMN 1F5s.7] (Eterna round: R96, puzzle: Same State NG 2)', 36.3),
  ('CACCCAAAGGAAGGAUAUAGGGACUCGAGGACAACAUGAGGAUCACCCAUGUCCCGCCAUCGGCCUUAGAAGGUCCAAGGGAAC [Eternabot solution 7] (Eterna round: R96, puzzle: Same State NG 2)', 21.8),
  ('GCUUGCGGCGCAGGAUAUGGGUGCCUGUACAUGAGGAUCACCCAUGUUAAGGGACGGAUUACGAACCAGAAGGGCGUGGCGGGC [Ceerce] (Eterna round: R96, puzzle: Same State NG 2)', 430),
  ('CAUUGGACAUCCAGUGAGACAUGAGGAUCACCCAUGUAGGCGCAGGAUAUGCGGGUUCGGUGCUCGCAGAAGGGUGAAGAAAAC [Veenin] (Eterna round: R96, puzzle: Same State NG 3)', 114);

Kindly review the next sequence as well.
Incoming: # query: apparent KD of MS2 coat protein of entry GUGGUCAGACAUGAGGAUCACCCAUGUGGAAUAAAUAACGACUAGGAUAUAUAAUAUAGGAUAUAAUAGAAGGAGUGAUUGGUG (Eterna round: R96, puzzle: Same State NG 3)
Outgoing: 58.8
